Target: T1, human β-klotho (human, UniProt Q86Z14 1-1044)
T1 sequence (looked up): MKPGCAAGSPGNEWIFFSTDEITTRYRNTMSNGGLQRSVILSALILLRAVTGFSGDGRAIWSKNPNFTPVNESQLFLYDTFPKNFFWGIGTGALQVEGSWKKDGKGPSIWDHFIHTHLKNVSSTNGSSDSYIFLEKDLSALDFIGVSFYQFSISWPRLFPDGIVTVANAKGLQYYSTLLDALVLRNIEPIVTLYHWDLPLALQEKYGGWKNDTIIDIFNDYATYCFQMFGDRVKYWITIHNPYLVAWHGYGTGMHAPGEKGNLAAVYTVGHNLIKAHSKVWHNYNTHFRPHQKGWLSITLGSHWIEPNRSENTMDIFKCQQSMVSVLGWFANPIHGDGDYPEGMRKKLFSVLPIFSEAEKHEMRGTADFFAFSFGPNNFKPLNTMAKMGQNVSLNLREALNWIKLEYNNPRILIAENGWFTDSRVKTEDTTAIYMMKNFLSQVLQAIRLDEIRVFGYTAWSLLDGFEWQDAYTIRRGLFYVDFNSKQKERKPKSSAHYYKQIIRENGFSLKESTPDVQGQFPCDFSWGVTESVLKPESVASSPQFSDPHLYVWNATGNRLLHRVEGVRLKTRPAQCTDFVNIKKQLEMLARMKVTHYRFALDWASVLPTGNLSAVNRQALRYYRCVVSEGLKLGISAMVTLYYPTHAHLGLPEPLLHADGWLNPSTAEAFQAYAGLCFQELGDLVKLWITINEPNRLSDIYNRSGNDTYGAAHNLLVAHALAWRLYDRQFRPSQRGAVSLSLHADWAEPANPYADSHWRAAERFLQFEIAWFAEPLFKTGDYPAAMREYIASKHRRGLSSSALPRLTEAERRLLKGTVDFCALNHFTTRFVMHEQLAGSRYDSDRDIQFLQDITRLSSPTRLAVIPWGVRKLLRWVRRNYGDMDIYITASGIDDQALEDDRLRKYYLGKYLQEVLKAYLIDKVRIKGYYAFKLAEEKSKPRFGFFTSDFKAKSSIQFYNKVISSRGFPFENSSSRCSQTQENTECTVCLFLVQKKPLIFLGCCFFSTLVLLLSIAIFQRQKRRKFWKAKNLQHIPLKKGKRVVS
Assay: cell-based or functional assay
readout-type: EC50 (nM), pERK In Cell Western
Quick note: give the figure in nM, leave out the unit.

# binder, test-value
data = [
    ("hFGF21(33-209)-V82 (ligand) DSSPLLQFGGQVRQRYLYTDDAQQTEAHLEIREDGTVGGAADQSPESLLELKALKPGVIQILGVKTSRFLCQKPDGTLYGSLHFDPEACSFRELLLEDGYNVYQSEAHGLPLHLPGNRSPHCDPASQGPARFLPLPGLPPALPEPPGILAPQPPDVGSSDPLAMVGPSQGRSPSYAS", 1.5),
]

QUERY: Output measured EC50 (nM), pERK In Cell Western for this item: hFGF21(33-209)-V63 (ligand) DSSPLLQFGGQVRQRYLYTDDACQTEAHLEIREDGTVGGAAHQSPESLLQLKALKPGVIQILGVKTSRFLCQRPDGALYGSLHFDPEACSFRELLLENGYNVYQSETHGLPLHLPCNRSPHRDPASRGPARFLPLPGLPPAPPEPPGILAPQPPDVGSSDPLAMVGPSQARSPSYAS
RESULT: 13

QUERY: Output measured EC50 (nM), pERK In Cell Western for this item: hFGF21(33-209)-V84 (ligand) DSSPLLQFGGQVRQRYLYTDDAQQTEAHLEIREDGTVGGAADQSPESLLELKALKPGVIQILGVKTSRFLCQRPDGTLYGSLHFDPEACSFRELLLEDGYNVYQSETHGLPLHLPGNRSPHCDPASRGPARFLPLPGLPPALPEPPGILAPQPPDVGSSDPLAMVGPSQARSPSYAS
RESULT: 4.5

Values from patent US20120129766A1
